Target: HiBiT-BRM (Homo sapiens, UniProt P51531)
Construct: expressed in transfected cells
Sequence (P51531 whole entry): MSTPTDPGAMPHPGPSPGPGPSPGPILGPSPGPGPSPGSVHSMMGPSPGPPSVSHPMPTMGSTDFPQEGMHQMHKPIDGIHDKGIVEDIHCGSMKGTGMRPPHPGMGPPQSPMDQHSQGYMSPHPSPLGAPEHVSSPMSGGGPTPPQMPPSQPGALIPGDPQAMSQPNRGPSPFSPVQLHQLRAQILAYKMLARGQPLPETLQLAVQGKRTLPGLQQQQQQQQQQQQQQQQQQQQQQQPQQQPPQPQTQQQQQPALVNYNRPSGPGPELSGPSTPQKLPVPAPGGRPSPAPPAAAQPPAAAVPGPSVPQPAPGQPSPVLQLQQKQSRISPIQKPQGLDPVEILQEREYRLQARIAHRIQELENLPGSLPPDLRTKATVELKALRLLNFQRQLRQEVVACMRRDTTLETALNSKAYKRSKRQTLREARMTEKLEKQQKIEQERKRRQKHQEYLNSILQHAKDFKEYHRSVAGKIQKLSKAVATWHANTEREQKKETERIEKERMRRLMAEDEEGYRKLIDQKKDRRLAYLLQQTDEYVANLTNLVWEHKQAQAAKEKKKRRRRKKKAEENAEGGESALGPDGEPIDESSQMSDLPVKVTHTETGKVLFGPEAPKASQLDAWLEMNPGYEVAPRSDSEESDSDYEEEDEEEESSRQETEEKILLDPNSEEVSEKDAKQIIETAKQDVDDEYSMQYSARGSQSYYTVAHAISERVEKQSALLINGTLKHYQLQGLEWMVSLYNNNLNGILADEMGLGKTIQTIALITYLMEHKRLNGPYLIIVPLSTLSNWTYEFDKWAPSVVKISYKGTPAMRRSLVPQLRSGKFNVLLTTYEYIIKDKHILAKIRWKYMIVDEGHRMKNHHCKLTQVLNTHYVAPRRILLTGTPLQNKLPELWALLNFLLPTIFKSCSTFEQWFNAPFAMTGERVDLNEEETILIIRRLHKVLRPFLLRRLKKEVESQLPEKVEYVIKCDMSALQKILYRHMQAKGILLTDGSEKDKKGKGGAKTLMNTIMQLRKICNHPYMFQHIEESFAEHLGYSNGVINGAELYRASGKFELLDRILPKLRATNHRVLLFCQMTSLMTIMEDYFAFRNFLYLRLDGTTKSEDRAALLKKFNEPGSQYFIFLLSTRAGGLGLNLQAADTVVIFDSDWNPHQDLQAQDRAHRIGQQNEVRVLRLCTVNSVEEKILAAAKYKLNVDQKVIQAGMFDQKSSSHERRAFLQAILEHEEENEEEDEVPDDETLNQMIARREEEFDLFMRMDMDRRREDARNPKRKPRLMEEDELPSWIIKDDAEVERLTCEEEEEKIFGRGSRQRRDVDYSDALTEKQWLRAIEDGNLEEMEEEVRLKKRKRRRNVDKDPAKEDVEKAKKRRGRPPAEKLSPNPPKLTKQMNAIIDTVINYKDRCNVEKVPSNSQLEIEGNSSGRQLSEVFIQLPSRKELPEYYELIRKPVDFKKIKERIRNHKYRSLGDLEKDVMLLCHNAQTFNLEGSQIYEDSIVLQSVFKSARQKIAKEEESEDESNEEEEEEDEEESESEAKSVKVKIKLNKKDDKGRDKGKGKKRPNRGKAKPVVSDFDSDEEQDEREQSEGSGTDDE
Test: HiBiT-BRM cell-based degradation assay (Nano-Glo HiBiT Lytic Detection)
Settings: HeLa cells expressing HiBiT-BRM, 24 h; read-out: BRM HiBit Degradation IC50
# DC50 per record follows

Consider the following illustrative entries.
# molecule, DC50
rows = [
    ("Nc1nnc(-c2ccccc2O)cc1N1CCN(CC(=O)N2CC(COc3ccc4c(c3)C(=O)N(C3CCC(=O)NC3=O)C4=O)C2)CC1 (centres unmarked) [Compound 81]", "> 1000 nM"),
    ("Cc1ncsc1-c1ccc(CNC(=O)[C@@H]2C[C@@H](O)CN2C(=O)[C@@H](NC(=O)COCCOCCOCC(=O)NCc2ccc(CCOc3cc(-c4ccccc4O)nnc3N)cc2)C(C)(C)C)cc1 [Compound 38]", "> 1000 nM"),
    ("Cc1ncsc1-c1ccc(CNC(=O)[C@@H]2C[C@@H](O)CN2C(=O)[C@@H](NC(=O)CCCCCCCCCCCCCCC(=O)N(C)Cc2ccc(CCOc3cc(-c4ccccc4O)nnc3N)cc2)C(C)(C)C)cc1 [Compound 223]", "> 100 nM"),
    ("Cc1ncsc1-c1ccc([C@H](C)NC(=O)[C@@H]2C[C@@H](O)CN2C(=O)[C@@H](c2cc(OCCNCCC(=O)NCc3ccc(CCOc4cc(-c5ccccc5O)nnc4N)cc3)no2)C(C)C)cc1 [Compound 230]", "> 100 nM"),
]

Now for another entry.
Prompt: For HiBiT-BRM (Homo sapiens, UniProt P51531), give DC50 of the listed molecule: Nc1nnc(-c2ccccc2O)cc1OCCc1ccc(C(=O)NCCOCCOCCNc2cccc3c2C(=O)N(C2CCC(=O)NC2=O)C3=O)cc1 (centres unmarked) [Compound 43]
Response: > 1000 nM

* * *

Molecular target: HiBiT-BRM (Homo sapiens, UniProt P51531)
Construct: expressed in transfected cells
Experiment: HiBiT-BRM cell-based degradation assay (Nano-Glo HiBiT Lytic Detection)
Details: HeLa cells expressing HiBiT-BRM, 24 h; read-out: BRM HiBit Degradation IC50
Entries and their DC50

Study these solved cases before continuing.
# molecule, valueMeasured
rows = [
    ("Cc1ncsc1-c1ccc(CNC(=O)[C@@H]2C[C@@H](O)CN2C(=O)[C@@H](NC(=O)CCCCCCCCCNCc2ccc(CCN(C)c3cc(-c4ccccc4O)nnc3N)cc2)C(C)(C)C)cc1", "> 100 nM"),
    ("Cc1ncsc1-c1ccc([C@H](C)NC(=O)[C@@H]2C[C@@H](O)CN2C(=O)[C@@H](c2cc(OCCN3CC4CN(C(=O)c5ccc(CCOc6cc(-c7ccccc7O)nnc6N)cc5)CC43)no2)C(C)C)cc1 (some centres unmarked)", "> 100 nM"),
    ("Cc1ncsc1-c1ccc([C@H](C)NC(=O)[C@@H]2C[C@@H](O)CN2C(=O)[C@@H](c2cc(OCCN3CCC(O)(C(=O)NCc4ccc(CCOc5cc(-c6ccccc6O)nnc5N)cc4)CC3)no2)C(C)C)cc1", "> 10 nM"),
    ("Cc1ncsc1-c1ccc(CNC(=O)[C@@H]2C[C@@H](O)CN2C(=O)[C@@H](NC(=O)CCN2CCC3(CC2)CCN(C(=O)c2ccc(CCOc4cc(-c5ccccc5O)nnc4N)cc2)CC3)C(C)(C)C)cc1", "> 1000 nM"),
]

Prompt: Give DC50 for Cc1ncsc1-c1ccc([C@H](C)NC(=O)[C@@H]2C[C@@H](O)CN2C(=O)[C@@H](c2cc(OCCN(C)Cc3ccc(CCOc4cc(-c5ccccc5O)nnc4N)cc3)no2)C(C)C)cc1
Response: < 10 nM

* * *

Target: HiBit-BRG1 (Homo sapiens, UniProt P51532)
Construct: expressed in transfected cells
Sequence (P51532 whole entry): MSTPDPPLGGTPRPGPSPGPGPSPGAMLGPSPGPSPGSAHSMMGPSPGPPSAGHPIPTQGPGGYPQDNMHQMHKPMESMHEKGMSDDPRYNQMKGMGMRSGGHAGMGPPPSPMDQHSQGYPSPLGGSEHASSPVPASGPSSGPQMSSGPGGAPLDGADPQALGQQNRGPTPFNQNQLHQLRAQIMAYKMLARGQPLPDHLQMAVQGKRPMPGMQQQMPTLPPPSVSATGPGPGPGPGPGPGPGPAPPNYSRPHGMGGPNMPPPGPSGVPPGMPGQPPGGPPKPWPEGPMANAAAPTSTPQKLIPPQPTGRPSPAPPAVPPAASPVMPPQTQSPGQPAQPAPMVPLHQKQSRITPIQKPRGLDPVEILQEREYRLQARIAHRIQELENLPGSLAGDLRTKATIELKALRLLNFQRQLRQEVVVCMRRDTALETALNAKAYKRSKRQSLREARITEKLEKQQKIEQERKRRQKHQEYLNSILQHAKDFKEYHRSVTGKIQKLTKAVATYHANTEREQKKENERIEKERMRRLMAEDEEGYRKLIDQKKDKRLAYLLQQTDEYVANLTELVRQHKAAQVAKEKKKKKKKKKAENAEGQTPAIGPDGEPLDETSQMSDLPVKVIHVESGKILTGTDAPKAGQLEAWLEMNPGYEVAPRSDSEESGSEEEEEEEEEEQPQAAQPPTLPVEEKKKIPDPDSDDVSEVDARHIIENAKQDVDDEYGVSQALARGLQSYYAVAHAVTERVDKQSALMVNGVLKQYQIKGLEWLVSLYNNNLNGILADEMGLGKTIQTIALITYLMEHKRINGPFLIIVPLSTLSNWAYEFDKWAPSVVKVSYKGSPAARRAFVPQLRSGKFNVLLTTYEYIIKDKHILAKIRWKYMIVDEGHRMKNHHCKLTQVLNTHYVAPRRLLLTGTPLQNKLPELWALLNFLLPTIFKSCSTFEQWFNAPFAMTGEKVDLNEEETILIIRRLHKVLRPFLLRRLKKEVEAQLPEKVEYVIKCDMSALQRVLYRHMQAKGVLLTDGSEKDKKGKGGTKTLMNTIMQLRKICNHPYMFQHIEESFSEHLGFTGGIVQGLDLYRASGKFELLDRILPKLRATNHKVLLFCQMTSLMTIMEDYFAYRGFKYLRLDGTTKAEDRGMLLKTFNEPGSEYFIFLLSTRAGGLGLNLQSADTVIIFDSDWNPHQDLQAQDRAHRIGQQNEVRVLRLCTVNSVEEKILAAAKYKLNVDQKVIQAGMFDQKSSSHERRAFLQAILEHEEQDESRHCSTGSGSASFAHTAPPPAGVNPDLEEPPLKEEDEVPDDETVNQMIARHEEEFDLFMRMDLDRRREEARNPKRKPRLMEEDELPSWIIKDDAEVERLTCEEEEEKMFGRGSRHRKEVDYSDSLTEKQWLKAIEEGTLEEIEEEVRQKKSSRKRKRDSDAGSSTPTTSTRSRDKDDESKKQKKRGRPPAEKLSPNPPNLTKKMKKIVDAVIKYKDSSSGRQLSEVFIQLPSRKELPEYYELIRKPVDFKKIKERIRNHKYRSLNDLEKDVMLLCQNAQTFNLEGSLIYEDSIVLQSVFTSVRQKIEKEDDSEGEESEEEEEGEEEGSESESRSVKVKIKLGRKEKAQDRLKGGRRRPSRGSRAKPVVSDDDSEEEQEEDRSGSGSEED
Experiment: HiBit-BRG1 cell-based degradation assay (Nano-Glo HiBiT Lytic Detection)
Details: HeLa cells expressing HiBit-BRG1 and LgBit, 24 h; read-out: BRG1 HiBit Degradation Maximum (%)
quantity: Dmax

# molecule, Dmax
records = [
    ("Cc1ncsc1-c1ccc([C@H](C)NC(=O)[C@@H]2C[C@@H](O)CN2C(=O)[C@@H](c2cc(OCCN3CC4(C3)CN(CC(=O)NCc3ccc(CCOc5cc(-c6ccccc6O)nnc5N)cc3)C4)no2)C(C)C)cc1", "> 75%"),
    ("Nc1nnc(-c2ccccc2O)cc1OCCc1ccc(CNCCCCCOc2ccc3c(c2)C(=O)N(C2CCC(=O)NC2=O)C3=O)cc1 (centres unmarked)", "< 50%"),
    ("Cc1ncsc1-c1ccc(CNC(=O)[C@@H]2C[C@@H](O)CN2C(=O)[C@@H](NC(=O)CCCCCCCCCNC(=O)c2ccc(CCN(C)c3cc(-c4ccccc4O)nnc3N)cc2)C(C)(C)C)cc1", "> 75%"),
    ("Cc1ncsc1-c1ccc([C@H](C)NC(=O)[C@@H]2C[C@@H](O)CN2C(=O)[C@@H](NC(=O)CCCCCCCCCNC(=O)c2ccc(CCOc3cc(-c4ccccc4O)nnc3N)cc2)C(C)(C)C)cc1", "> 50%"),
]

Let's switch to this molecule now.
Prompt: Retrieve Dmax on HiBit-BRG1 (Homo sapiens, UniProt P51532); query Cc1ncsc1-c1ccc([C@H](C)NC(=O)[C@@H]2C[C@@H](O)CN2C(=O)[C@@H](NC(=O)CCCCCCCCCCCCC(=O)NCc2ccc(CCOc3cc(-c4ccccc4O)nnc3N)cc2)C(C)(C)C)cc1
Response: < 50%

* * *

Target: HiBiT-BRM (Homo sapiens, UniProt P51531)
Construct: expressed in transfected cells
Assay: HiBiT-BRM cell-based degradation assay (Nano-Glo HiBiT Lytic Detection)
Details: HeLa cells expressing HiBiT-BRM, 24 h; read-out: BRM HiBit Degradation IC50
Counter-ions that a name gives are not always drawn.
compounds and their reported DC50

Solved cases (4 shown):
# compound, experimentalTarget, quantity, valueMeasured
measured = [
    ("Cc1ncsc1-c1ccc(CNC(=O)[C@@H]2C[C@@H](O)CN2C(=O)[C@@H](NC(=O)CCCCCCCCCCCCCCCC(=O)N(C)Cc2ccc(CCOc3cc(-c4ccccc4O)nnc3N)cc2)C(C)(C)C)cc1 [Compound 228]", "HiBiT-BRM (Homo sapiens, UniProt P51531)", "DC50", "> 100 nM"),
    ("Nc1nnc(-c2ccccc2O)cc1OCCc1ccc(CNCCN2CCN(c3ccc4c(c3)C(=O)N(C3CCC(=O)NC3=O)C4=O)CC2)cc1 (centres unmarked) [Compound 3]", "HiBiT-BRM (Homo sapiens, UniProt P51531)", "DC50", "> 1000 nM"),
    ("Nc1nnc(-c2ccccc2O)cc1OCCc1ccc(CNCCCNc2cccc3c2C(=O)N(C2CCC(=O)NC2=O)C3=O)cc1 (centres unmarked) [Compound 108, formic acid salt]", "HiBiT-BRM (Homo sapiens, UniProt P51531)", "DC50", "> 10 nM"),
    ("Cc1ncsc1-c1ccc([C@H](C)NC(=O)[C@@H]2C[C@@H](O)CN2C(=O)[C@@H](c2cc(OCCN3CCC(OC4CN(C(=O)c5ccc(CCOc6cc(-c7ccccc7O)nnc6N)cc5)C4)CC3)no2)C(C)C)cc1 [Compound 253]", "HiBiT-BRM (Homo sapiens, UniProt P51531)", "DC50", "< 10 nM"),
]

Kindly review the next compound as well.
Prompt: Tell me measured DC50 for CCN(CCc1ccc(C(=O)NCCCCCCCCCC(=O)N[C@H](C(=O)N2C[C@H](O)C[C@H]2C(=O)NCc2ccc(-c3scnc3C)cc2)C(C)(C)C)cc1)c1cc(-c2ccccc2O)nnc1N (racemic) [Compound 144] please.
Response: > 100 nM

* * *

Target: HiBit-BRG1 (Homo sapiens, UniProt P51532)
Construct: expressed in transfected cells
Test: HiBit-BRG1 cell-based degradation assay (Nano-Glo HiBiT Lytic Detection)
Details: HeLa cells expressing HiBit-BRG1 and LgBit, 24 h; read-out: BRG1 HiBit Degradation IC50
quantity: DC50

Study these solved cases before continuing.
# compound, DC50
measured = [
    ("Nc1nnc(-c2ccccc2O)cc1OCCc1ccc(CNCCCCOc2cccc3c2C(=O)N(C2CCC(=O)NC2=O)C3=O)cc1 (centres unmarked)", "> 1000 nM"),
    ("Nc1nnc(-c2ccccc2O)cc1OCCc1ccc(CN2CC(N3CCN(c4cccc5c4C(=O)N(C4CCC(=O)NC4=O)C5=O)CC3)C2)cc1 (centres unmarked)", "> 1000 nM"),
]

Prompt: Answer with the recorded DC50 of Cc1ncsc1-c1ccc([C@H](C)NC(=O)[C@@H]2C[C@@H](O)CN2C(=O)[C@@H](c2cc(OCCN3CCN(c4cc(-c5ccccc5O)nnc4N)CC3)no2)C(C)C)cc1 only.
Response: > 1000 nM

Prompt: Return DC50 (reported value) for this compound: Cc1ncsc1-c1ccc(CNC(=O)[C@@H]2C[C@@H](O)CN2C(=O)[C@@H](NC(=O)CCN2CC3CN(C(=O)c4ccc(CCOc5cc(-c6ccccc6O)nnc5N)cc4)C3C2)C(C)(C)C)cc1 (some centres unmarked)
Response: > 1000 nM

Prompt: For the compound Cc1ncsc1-c1ccc([C@H](C)NC(=O)[C@@H]2C[C@@H](O)CN2C(=O)[C@@H](NC(=O)CCCCCCCCCCCCC(=O)NCc2ccc(CCOc3cc(-c4ccccc4O)nnc3N)cc2)C(C)(C)C)cc1 , give its measured DC50 value.
Response: > 1000 nM

Prompt: For Nc1nnc(-c2ccccc2O)cc1OCCc1ccc(CNCCCCNc2cccc3c2C(=O)N(C2CCC(=O)NC2=O)C3=O)cc1 (centres unmarked) , write its DC50.
Response: > 1000 nM
